# methodSummary: Inhibition of thrombin-induced platelet aggregation in human
Provide the recorded IC50 for the entries that follow.
// return numeric value only (unit: µM, not printed)

Query :: Bench note: what IC50 did O=c1oc2cc(O)ccc2cc1-c1cc(O)cc(O)c1 show?
Result :: 62.3

Query :: Query (compound): O=c1oc2c(O)cc(O)cc2cc1-c1cc(O)cc(O)c1 ; field requested: IC50
Result :: 285

Query :: Entry under review: COc1cc(OC)cc(-c2cc3ccc(O)cc3oc2=O)c1 . Reported IC50?
Result :: 105

Query :: Quick one: IC50 of O=c1oc2ccc(O)cc2cc1-c1cc(O)cc(O)c1 ?
Result :: 30.1

====

# methodSummary: Inhibition of thrombin-induced platelet aggregation in human
For each entry below, report its IC50 value.

Query :: Give the measured IC50 of COc1cc(OC)cc(-c2cc3cc(OC)ccc3oc2=O)c1 .
Result :: > 25 µM

Query :: Recorded IC50 for COc1cc(OC)cc(-c2cc3cc(OC)cc(OC)c3oc2=O)c1 , please?
Result :: > 100 µM

Query :: Need IC50, item COc1cc(OC)cc(-c2cc3ccc(OC)cc3oc2=O)c1
Result :: > 100 µM

The reported measurements were obtained from BindingDB's records for doi:10.1016/j.bmcl.2005.10.013.
